The measurements presented in this section are drawn from ChEMBL document CHEMBL3507680.

assay: Human HepG2 cell viability assay in 384 well format; format: toxicity, cell-based; set-up: dose 125 nL, time 70.5 hour; concentration not given beside the values; settings: HepG2 cells, read-out: Inhibition
READOUT_LABEL: cytotoxicity at 70.5 h (%)
Return type: number; implicit unit %.

Data request: # lookup: cytotoxicity at 70.5 h of CCn1ncc2[nH]c(-c3ccc(OC)c(COC)c3)nc21
Data returned: -6.61

Data request: Let us now turn to Cc1ccsc1CN(C)Cn1nccc1-c1cccnc1
Data returned: -2.36

Data request: Let us now turn to Cc1cnn(CCNCc2cc(C#N)ccc2F)c1
Data returned: 18.7

Data request: Let us now turn to Cc1cc(C(=O)N2CC(=O)Nc3cnccc32)c(Cl)cc1F
Data returned: -1.87

Data request: Let us now turn to N#Cc1cccnc1Nc1ccc(N2CCC(C(N)=O)CC2)cc1
Data returned: 4.18

Data request: Let us now turn to COCCOc1ccccc1CNCc1c(C)nn(C)c1N(C)C
Data returned: -0.188

Data request: Let us now turn to Cc1cc(C)n(CC2CN(Cc3noc(C4CC4)n3)CCO2)n1 (configuration not stated)
Data returned: -6.69

Data request: Let us now turn to O=C(Cn1cccnc1=O)NC(Cc1ccsc1)c1cccnc1 (configuration not stated)
Data returned: -6.19

Data request: Let us now turn to COCC(=O)NCc1cc(=O)n2c(n1)CN(Cc1ccco1)CCC2
Data returned: 2.27

Data request: Let us now turn to CCc1ncc(C(=O)N(C)CC2Cc3ccccc3O2)cn1 (configuration not stated)
Data returned: 25.4

Data request: Let us now turn to COc1ccc(C)c2c1N(C(=O)c1ccc3nnc(C)n3c1)CCC2
Data returned: -2.94

Data request: Let us now turn to O=C(CN1CCCC1Cn1cccn1)NCCC1=CCCCC1 (configuration not stated)
Data returned: -9.89
